Data provenance is patent US20240000946A1.

Biological target: human recombinant CA IX (Homo sapiens, UniProt Q16790)
Construct: recombinant human carbonic anhydrase catalytic domains using the fluorescent thermal shift assay
Assay: Fluorescent thermal shift assay (FTSA), CA IX
Conditions: 37° C., pH 7.0
pKd: −log10 of the molar value.
Readout: pKd

| Compound | Study target | pKd |
| --- | --- | --- |
| NS(=O)(=O)c1c(F)c(F)c(S(=O)(=O)CCNC(=O)CCOCCOCCOCCOCCOCCOCCOCCOCCOCCOCCOCCOCCOCCC(=O)O)c(NC2CCCCCCC2)c1F | human recombinant CA IX (Homo sapiens, UniProt Q16790) | 10.30 |

[a] NS(=O)(=O)c1c(F)c(F)c(S(=O)(=O)CCNC(=O)CCOCCOCCOCCOCCOCCOCCOCCOCCOCCOCCOCCOCCOCCC(=O)NCCS(=O)(=O)c2c(F)c(F)c(S(N)(=O)=O)c(F)c2NC2CCCCCCC2)c(NC2CCCCCCC2)c1F
[b] NS(=O)(=O)c1c(F)c(F)c(S(=O)(=O)CCNC(=O)CCOCCOCCOCCOCCOCCOCCOCCOCCOCCOCCOCCOCCNC(=O)CCCCC2SCC3NC(=O)NC32)c(NC2CCCCCCC2)c1F (stereo not drawn)
Task: Hi there, can you help? I need to know whether a or b has lower measured pKd. Answer = label.
Output: b
